Hello, the source for this data is the supplement of paper PMC10646978, in case you need it.

- Test system: RAW-Dual (murine macrophage reporter line)
- method: NF-kB reporter (SEAP) activity fold change vs agonist alone; higher = enhanced NF-kB activity
- stated.conditions: modulator concentration 10 µM; agonist: LPS 0.1 ug/mL
Param threshold (0.9) applies to NF-kB reporter; output Criterion met when value >= threshold, Criterion not met when value < threshold.

Reference set, count: 8
{"columns": ["molecule", "label.value"],
 "data": [
  ["O=C(Nc1cc(C(F)(F)F)cc(C(F)(F)F)c1)c1ccc([N+](=O)[O-])cc1", "Criterion met"],
  ["CCc1ccccc1Nc1nc(-c2sc(NC(C)=O)nc2C)cs1", "Criterion not met"],
  ["O=Cc1cn(CCOc2ccc(Br)cc2)c2ccccc12", "Criterion met"],
  ["Cc1ccc(C(=O)c2ccc(CC(=O)O)n2C)cc1", "Criterion met"],
  ["Cn1ncc(Cl)c1-c1cc(C(=O)N[C@H](CN)Cc2cccc(F)c2)sc1Cl", "Criterion met"],
  ["O=C(NCCN1CCOCC1)c1cc2nc(-c3ccccc3)cc(C(F)(F)F)n2n1", "Criterion met"],
  ["O=c1c2ccccc2n(Cc2nc(-c3ccc(F)c(F)c3)no2)c(=O)n1C1CC1", "Criterion met"],
  ["O=c1c(O)c(-c2ccccc2)oc2cc(O)ccc12", "Criterion met"]
]}

Test whether the molecule CCc1sc2sncc2c1Br records NF-kB reporter of 0.9 or higher.
Criterion not met

Query C[C@H](NC(=O)C(=O)Nc1ccccc1C(C)(C)C)C(=O)N[C@@H](CC(=O)O)C(=O)COc1c(F)c(F)cc(F)c1F next
Criterion not met

Query Oc1ccccc1C=NNc1nc(-c2ccccc2)cc(-c2ccccc2)n1 next
Criterion met

Query CCCOc1cccc(C(=O)Nc2cccc(S(N)(=O)=O)c2)c1 next
Criterion met

Query CCCCOC(=O)C1=C(C)NC2=C(C(=O)CCC2)C1c1cccc(C(F)(F)F)c1 (stereo unspecified) next
Criterion met

Query Br.O=S(=O)(c1ccc(-c2csc(Nc3ccc(F)cc3)n2)cc1)N1CCOCC1 next
Criterion met

Query CCNc1cc(C)nc(Nc2ccc(NC(=O)c3ccc(OC)c(OC)c3)cc2)n1 next
Criterion met

Query CC1=CC(=NS(=O)(=O)c2ccc(C)cc2)C=C(Cl)C1=O next
Criterion not met

Query COc1cc(C=Nc2ccc3oc(-c4ccc(C(C)(C)C)cc4)nc3c2)ccc1OC(=O)c1ccc(Cl)cc1Cl next
Criterion met
